# Test system: CP192
# assay name: qHTS profiling for inhibitors of Plasmodium falciparum proliferation (AID 504749); also: nearly all actives have a fitted effect of over 60% in size; also: potency is read from the fitted curve at half-maximal effect
# details: P. falciparum in erythrocytes, SYBR Green DNA, 72 h; series mostly up to 28.7 µM
# Procedure: NIH National Institute of Allergy and Infectious Diseases [NIAID] NIH Chemical Genomics Center [NCGC] […] Because mature erythrocytes lack DNA, only Plasmodium-derived DNA is detected. NCGC Assay Protocol Summary: The SYBR Green viability assay was adapted from a method described previously (Plouffe et al., 2008). […] The following morning, fluorescence intensity at 485(14) nm excitation and 535(25) nm emission wavelengths was measured on an EnVision (Perkin Elmer) plate reader. […]
Inconclusive results are not listed. Calls of active or inactive are those of the source. Calls follow the shape of the dose curve; as a rule, active = well fitted inhibition curve with a large enough effect; inconclusive = small, poorly fitted or top-dose-only effect; inactive = flat fitted curve, though single readings scatter.
reported endpoint: Potency

Consider the following illustrative entries.
- compound: "Nc1nc(/C(=C/CC(=O)O)C(=O)NC2C(=O)N3C(C(=O)O)=CCSC23)cs1 (stereo not given)"
  Potency: "inactive"
- compound: "C[N+]12CCCC[C@@H]1CCC(=C(c1cccs1)c1cccs1)C2 (stereo not given in full)"
  Potency: "10.7 µM (active)"
- compound: "CCC(C(=O)O)C1OC(C(C)C(O)C(C)C(=O)C(CC)C2OC3(C=CC(O)C4(CCC(C)(C5CCC(O)(CC)C(C)O5)O4)O3)C(C)CC2C)C(C)CC1C (stereo not given)"
  Potency: "0.169 µM (active)"
- compound: "O=C1NC(=O)C2C3C=CC(C3)C12 (stereo not given)"
  Potency: "inactive"

Proceeding to the next compound to report its Potency.
So, CC[C@@]1(O)CC2CN(CCc3c([nH]c4ccccc34)[C@](C(=O)OC)(c3cc4c(cc3OC)N(C)C3[C@@](O)(C(=O)OC)C(OC(C)=O)[C@]5(CC)C=CCN6CC[C@@]43C65)C2)C1 (stereo not given in full) ? Its Potency was 3.38 µM (active)
